These data points were gathered from patent US20250353873A1.

The reader will find reported APOE RNA (% UTC) values listed item by item below.
test system: human APOE RNA; test: Dose-dependent inhibition of human APOE RNA in HepG2 cells, electroporation, 50,000 cells per well, RT-PCR normalized to GAPDH (Example 4, Tables 8-10); assay type: cell-based; settings: 33 nM; HepG2, electroporation, 16-hour treatment
Strand notation (5' to 3'): a small letter for the sugar, then the base; units joined by * are phosphorothioate-linked, units joined directly phosphodiester-linked; [ ] holds rarer units or linkages, { } end groups; capitals alone tell only the bases. [ms] = mesyl phosphoramidate linkage; e = 2'-O-(2-methoxyethyl) (MOE); k = constrained ethyl (cEt); [5mC] = 5-methylcytosine; d = 2'-deoxy (DNA)

| Substance | APOE RNA (% UTC) |
| --- | --- |
| 1757586 (eT*eTeGeGkT*dG*dA*dA*dT*d[5mC]*dT*dT*dT*dA*dT*kTkAeA*eA*e[5mC]; antisense) [Compound 1757586] | 52 % UTC |
| Aes^mCeoTeoTesGesGksTdsGdzAdzAdzTds^mCdsTdsTdsTdsAdzTksTksAesAe (eA*e[5mC]eTeT*eG*kG*dT*dG[ms]dA[ms]dA[ms]dT*d[5mC]*dT*dT*dT*dA[ms]kT*kT*eA*eA) [Compound No. 1757576] | 80 % UTC |
| 1757575 (eA*e[5mC]eTeT*kG*kG*dT*dG[ms]dA[ms]dA[ms]dT*d[5mC]*dT*dT*dT*dA[ms]kT*eT*eA*eA; antisense) [Compound 1757575] | 87 % UTC |
| 1757554: mixed MOE/cEt gapmer TTGGTGAATCTTTATTAA, sugar kkeeeddddddddeeeee, linkages soossssssssssooss (kT*kTeGeG*eT*dG*dA*dA*dT*d[5mC]*dT*dT*dT*eAeTeT*eA*eA) [compound 1757554] | 101 % UTC |
| 1757563: mixed MOE/cEt gapmer TTGGTGAATCTTTATTAA, sugar eeeekddddddddkekee, linkages soossssssssssooss (eT*eTeGeG*kT*dG*dA*dA*dT*d[5mC]*dT*dT*dT*kAeTkT*eA*eA) [compound 1757563] | 84 % UTC |
